- PROTOCOL_NOTES: self-splicing fitness, log relative to wild type (ln ratio); higher = more splicing; Tetrahymena group I intron in knt gene, E. coli kanamycin selection, DiMSum; sequences stand for … in CUCUCU…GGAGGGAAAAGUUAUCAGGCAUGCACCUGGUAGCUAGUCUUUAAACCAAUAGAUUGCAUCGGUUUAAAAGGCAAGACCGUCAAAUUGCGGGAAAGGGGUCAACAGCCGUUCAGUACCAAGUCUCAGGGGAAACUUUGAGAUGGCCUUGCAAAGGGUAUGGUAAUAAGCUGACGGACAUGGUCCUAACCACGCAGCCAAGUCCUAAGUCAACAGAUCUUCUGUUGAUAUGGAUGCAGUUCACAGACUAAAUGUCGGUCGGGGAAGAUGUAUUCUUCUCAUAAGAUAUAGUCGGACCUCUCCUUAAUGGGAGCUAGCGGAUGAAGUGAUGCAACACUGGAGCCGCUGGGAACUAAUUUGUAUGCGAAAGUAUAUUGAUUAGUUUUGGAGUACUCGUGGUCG;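 further: selection with 25 µg/mL kanamycin versus none on LB agar overnight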
- ASSAY_CONTEXT: 30 °C
# reported self-splicing fitness (ln); entries follow
OBSERVED_PROPERTY: self-splicing fitness (ln)

{"columns": ["PRIMARY_SEQUENCE", "VAL"],
 "data": [
  ["CUUUAGCAAUAUUACGAUGG", -1.01],
  ["UCUGAGCAAUAUUACGGCCG", -2.7],
  ["GUCUAGCAAUAUUACGCGUC", -2.18],
  ["CCAUAGCAAUAUUACGCUAA", -3.38]
]}

###

- PROTOCOL_NOTES: self-splicing fitness, log relative to wild type (ln ratio); higher = more splicing; Tetrahymena group I intron in knt gene, E. coli kanamycin selection, DiMSum; sequences stand for … in CUCUCU…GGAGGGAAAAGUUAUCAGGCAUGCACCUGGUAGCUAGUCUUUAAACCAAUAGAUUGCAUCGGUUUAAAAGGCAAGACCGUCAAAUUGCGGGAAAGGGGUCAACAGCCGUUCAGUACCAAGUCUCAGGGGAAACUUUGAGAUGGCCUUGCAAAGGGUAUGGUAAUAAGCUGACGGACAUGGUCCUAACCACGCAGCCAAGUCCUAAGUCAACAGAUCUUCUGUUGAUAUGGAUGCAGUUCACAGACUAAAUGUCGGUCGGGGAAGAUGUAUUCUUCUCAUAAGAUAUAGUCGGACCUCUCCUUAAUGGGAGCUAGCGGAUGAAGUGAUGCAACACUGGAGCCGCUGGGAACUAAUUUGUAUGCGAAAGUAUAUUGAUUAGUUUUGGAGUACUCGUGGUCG
- ASSAY_CONTEXT: 37 °C

{"columns": ["PRIMARY_SEQUENCE", "self-splicing fitness (ln)"],
 "data": [
  ["CCACAGCAAUAUUACGCAAG", -0.406],
  ["CUCCAGCAAUAUUACGUGGC", -3.4],
  ["UGCGAGCAAUAUUACGAUUA", -1.1],
  ["GCCUAGCAAUAUUACGCUAA", 0.00419],
  ["AGUGAGCAAUAUUACGGCUU", -1.72],
  ["CAGCAGCAAUAUUACGUGGU", -2.93]
]}

###

- PROTOCOL_NOTES: self-splicing fitness, log relative to wild type (ln ratio); higher = more splicing; Tetrahymena group I intron in knt gene, E. coli kanamycin selection, DiMSum; sequences stand for … in CUCUCU…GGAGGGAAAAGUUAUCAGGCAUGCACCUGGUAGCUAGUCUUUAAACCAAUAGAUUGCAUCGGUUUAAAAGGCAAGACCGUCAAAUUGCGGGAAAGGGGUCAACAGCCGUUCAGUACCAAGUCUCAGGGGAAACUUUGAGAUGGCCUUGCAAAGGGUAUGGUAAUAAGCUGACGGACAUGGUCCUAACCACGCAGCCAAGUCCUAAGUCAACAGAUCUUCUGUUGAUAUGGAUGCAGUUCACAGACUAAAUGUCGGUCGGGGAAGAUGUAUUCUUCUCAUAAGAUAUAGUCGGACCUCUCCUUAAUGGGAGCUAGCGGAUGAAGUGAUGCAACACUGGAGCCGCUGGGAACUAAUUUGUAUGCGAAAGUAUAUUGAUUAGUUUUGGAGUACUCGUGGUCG
- ASSAY_CONTEXT: 30 °C
Classify by measured self-splicing fitness (ln): YES if it is equal to or exceeds -2, NO if it is smaller.

{"columns": ["PRIMARY_SEQUENCE", "CLASS"],
 "data": [
  ["CACGAGCAAUAUUACGCCAU", "NO"],
  ["GACCAGCAAUAUUACGACAU", "YES"],
  ["AGCAAGCAAUAUUACGCCUA", "YES"],
  ["UUAAAGCAAUAUUACGUCCU", "YES"],
  ["GAGCAGCAAUAUUACGUUCA", "YES"],
  ["GUCGAGCAAUAUUACGUUUA", "NO"],
  ["GAGGAGCAAUAUUACGAUAC", "YES"],
  ["AGCAAGCAAUAUUACGAGCG", "YES"],
  ["UCGUAGCAAUAUUACGUGGC", "NO"],
  ["UAUCAGCAAUAUUACGCGAC", "NO"],
  ["CCAUAGCAAUAUUACGGUUG", "YES"],
  ["UGCUAGCAAUAUUACGAAAU", "NO"],
  ["CAUUAGCAAUAUUACGACGG", "YES"],
  ["UGUGAGCAAUAUUACGAUCG", "YES"],
  ["UAGGAGCAAUAUUACGUAAA", "NO"],
  ["CCACAGCAAUAUUACGCAAG", "YES"],
  ["GCGGAGCAAUAUUACGUAAG", "NO"],
  ["CUAGAGCAAUAUUACGGAUG", "YES"],
  ["GAAGAGCAAUAUUACGGUGU", "NO"],
  ["ACACAGCAAUAUUACGCUCU", "YES"],
  ["UAUCAGCAAUAUUACGUGCU", "NO"],
  ["AUAGAGCAAUAUUACGCGCA", "YES"],
  ["CCACAGCAAUAUUACGAGAC", "NO"],
  ["ACUGAGCAAUAUUACGUUCA", "NO"],
  ["CUUCAGCAAUAUUACGCUCU", "NO"],
  ["GUACAGCAAUAUUACGCCGG", "NO"],
  ["GUCUAGCAAUAUUACGAAAU", "YES"],
  ["UGGAAGCAAUAUUACGUGCC", "NO"],
  ["AUCAAGCAAUAUUACGGCCG", "YES"],
  ["AAGAAGCAAUAUUACGUUCG", "YES"],
  ["GAAGAGCAAUAUUACGGUUA", "YES"],
  ["AGUCAGCAAUAUUACGAGUA", "NO"]
]}
